assay.target: Cyclin-dependent kinase 2/cyclin E1 (Homo sapiens, UniProt P24941)
assay.notes: Inhibition of full length N-terminal GST-tagged human CDK2 (1 to 298 residues)/cyclin E1 (1 to 410 residues) expressed in Sf21 cells using histone H1 as substrate preincubated for 10 mins followed by substrate and ATP addition and measured after 60 mins by ADP-Glo reagent based microplate reader assay
Record form. Attribute: Ki. Fill in for each entry.
Answers are plain numbers, in nM.

Sample answers from the record:
molecule | Ki [nM]
CC(C)c1cnn2c3nc(nc12)N(C1CNC1)CCCCCOc1ccccc1CN3 | 158
CC(C)c1cnn2c3nc(nc12)N(CC1CCNCC1)CCCCCOc1cc(C(F)(F)F)ccc1CN3 | 15.1
CC(C)c1cnn2c3nc(nc12)N(CC1CCN(C)CC1)CCCCCOc1ccccc1CN3 | 2.7
CC(C)c1cnn2c3nc(nc12)N(CC1CCOCC1)CCCCCOc1ccccc1CN3 | 426
CC(C)c1cnn2c3nc(nc12)N(CC1CNC1)CCCCCOc1cc(C#N)ccc1CN3 | 35.8

Record Ki for all entries; do not skip any.
1. CC(C)c1cnn2c3nc(nc12)N(CC1CCNC1)CCCCCOc1ccccc1CN3 (centres undefined)
2. CC(C)c1cnn2c3nc(nc12)N(CC1CCNCC1)CCCCCOc1cc(F)c(F)cc1CN3
3. CC(C)n1cnc2c3nc(nc21)N(CC1CNC1)CCCCCOc1cc(S(C)(=O)=O)ccc1CN3
4. CC(C)c1cnn2c3nc(nc12)N(CC1CCNCC1)CCCCCOc1cc(C#N)ccc1CN3

Result:
[1, 2.9, 3.6, 9.4]
